For CYP2A6 (Homo sapiens (Human)), measured IC50 is reported for the entries below.

{"columns": ["molecule", "IC50"],
 "data": [
  ["COc1ccc(F)c(-n2ncc3c2CCC[C@H]3NC(=O)c2ncn3c2CCCC3)c1Cl [Compound C, reference compound]", "> 30 µM"],
  ["COc1ccc(F)c(-n2ncc3c2COC[C@H]3NC(=O)c2ncn3c2CCCC3)c1Cl (single isomer, unassigned)", "> 30 µM"]
]}

---

In this section, each of the molecules is paired with its reported IC50.
- System: MOLM-13 cells
- assay explanation: MOLM-13 cell viability (Assay B), Cell Titer-Glo
- Assay type: cell-based
- measurement parameters: Homo sapiens, MOLM-13; 72 hours; bins ≥10 nM-<100 nM and <10 nM; read-out: IC50 MOLM13 inhibition activity
value kind: IC50

{"columns": ["molecule", "value kind", "endpoint result"],
 "data": [
  ["Cc1cccc(-n2ncc3c2COC[C@H]3NC(=O)c2n[nH]c3c2CCCC3)c1Cl", "IC50", "10 to 100 nM"],
  ["COc1cccc(-n2ncc3c2COC[C@H]3NC(=O)c2noc3c2CCCC3)c1Cl", "IC50", "< 10 nM"],
  ["CCc1c(C(=O)N[C@@H]2COCc3c2cnn3-c2cccc(OC)c2Cl)ncn1C", "IC50", "< 10 nM"],
  ["Cc1ccccc1-n1ncc2c1COC[C@H]2NC(=O)c1ncn2c1CCCC2", "IC50", "10 to 100 nM"],
  ["Cc1cccc(-n2ncc3c2COC[C@H]3NC(=O)c2ncc3n2CCCC3)c1Cl", "IC50", "< 10 nM"],
  ["O=C(N[C@@H]1COCc2c1cnn2-c1c(F)cccc1Cl)c1ncn2c1CCCC2 (single isomer, unassigned)", "IC50", "< 10 nM"],
  ["COc1ccc(F)c(-n2ncc3c2COC[C@H]3NC(=O)c2ncc3n2CCCC3)c1Cl", "IC50", "< 10 nM"],
  ["Cc1cccc(Cl)c1-n1ncc2c1COC[C@H]2NC(=O)c1noc2c1CCCC2", "IC50", "< 10 nM"],
  ["O=C(N[C@@H]1COCc2c1cnn2-c1cccc(C(=O)N2CCOCC2)c1Cl)c1ncn2c1CCCC2", "IC50", "10 to 100 nM"],
  ["O=C(N[C@@H]1COCc2c1cnn2-c1c(F)cccc1F)c1ncn2c1CCCC2", "IC50", "10 to 100 nM"],
  ["COc1ccc(F)c(-n2ncc3c2COC[C@H]3NC(=O)c2n[nH]c3c2CCCC3)c1Cl", "IC50", "< 10 nM"],
  ["CCc1c(C(=O)N[C@@H]2COCc3c2cnn3-c2cccc(C)c2Cl)n[nH]c1C", "IC50", "10 to 100 nM"],
  ["O=C(N[C@@H]1COCc2c1cnn2-c1cccc(C(=O)N2CCCCC2)c1Cl)c1ncn2c1CCCC2", "IC50", "< 10 nM"],
  ["COc1cccc(-n2ncc3c2COC[C@H]3NC(=O)c2cc(C)c(C)cn2)c1Cl", "IC50", "10 to 100 nM"]
]}

---

- tested target: recombinant human DHODH (Homo sapiens (Human))
- Sequence (Q02127 whole entry): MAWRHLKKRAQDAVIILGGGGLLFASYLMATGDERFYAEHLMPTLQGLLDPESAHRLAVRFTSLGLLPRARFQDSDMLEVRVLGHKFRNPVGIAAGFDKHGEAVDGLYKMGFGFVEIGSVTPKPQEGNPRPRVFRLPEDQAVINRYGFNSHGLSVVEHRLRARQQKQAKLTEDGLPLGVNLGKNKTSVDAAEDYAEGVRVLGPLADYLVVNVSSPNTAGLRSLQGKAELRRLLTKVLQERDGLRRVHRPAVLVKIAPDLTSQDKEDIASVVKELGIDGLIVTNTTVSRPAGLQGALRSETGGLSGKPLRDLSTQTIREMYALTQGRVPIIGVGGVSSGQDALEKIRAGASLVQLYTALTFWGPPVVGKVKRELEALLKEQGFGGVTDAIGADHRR
- assay explanation: DHODH enzyme assay (Assay A), DCIP absorbance
- Assay type: biochemical
- measurement parameters: bins ≥10 nM-<100 nM and <10 nM; read-out: IC50 DHODH inhibition activity
Quick list: IC50 per entry.

{"columns": ["compound", "IC50"],
 "data": [
  ["Cc1cccc(Cl)c1-n1ncc2c1COC[C@H]2NC(=O)c1ncn2c1CCCC2", "< 10 nM"],
  ["Cc1cccc(-n2ncc3c2COC[C@H]3NC(=O)c2ncc3n2CCCC3)c1Cl", "< 10 nM"],
  ["CC(C)OC(=O)c1cccc(-n2ncc3c2COC[C@H]3NC(=O)c2ncn3c2CCCC3)c1Cl", "< 10 nM"],
  ["Cc1cccc(Cl)c1-n1ncc2c1COC[C@H]2NC(=O)c1noc2c1CCCC2", "< 10 nM"],
  ["CCc1c(C(=O)N[C@@H]2COCc3c2cnn3-c2c(F)ccc(OC)c2Cl)ncn1C", "< 10 nM"],
  ["O=C(N[C@@H]1COCc2c1cnn2-c1ccccc1F)c1ncc2n1CCCC2 (single isomer, unassigned)", "10 to 100 nM"],
  ["Cc1cccc(Cl)c1-n1ncc2c1COC[C@H]2NC(=O)c1n[nH]c2c1CCCC2", "10 to 100 nM"],
  ["CCc1c(C(=O)N[C@@H]2COCc3c2cnn3-c2cccc(C)c2Cl)ncn1C", "< 10 nM"]
]}

Data origin: patent US20250388602A1
